Measured Max OD450 values are reported for all entries that follow.
- system: shed MICA008 polypeptide (human) (UniProt Q29983)
- test.protocol: capture ELISA (anti-hFc / antibody / shed antigen / biotin-6D4)

[
  {
    "binder": "#40 (antibody, V domains shown) VH: QVQLQQSGPELVKPGASVKVSCKASGYAFTKYNIYWVKQSHGKSLEWIGYIDPYNGGTVYNQKFKGKATLTVDKSSSTAYMHLNSLTSEDSAVYYCATTDGYSLFTYWGQGTLVTVSA VL: DIQMTQTTSSLSASLGDRVTITCSAGQGINNYLNWYQQKPDGTVKLLIFYTSSLQSGVPSRFSGSGSGADYSLTISNLEPEDIATYYCQQYSKLPLTFGAGTKLELK",
    "Max OD450": 0.13
  },
  {
    "binder": "#31 (antibody, V domains shown) VH: EVQLQQSGPELVKPGASVKVSCKASGYAFTKYNIYWVKQSHGKSLEWIGYIDPYNGGTVQNQKFKGKATLTVDKSSSTAYMHLNSLTSEDSAVYYCATTDGYSLFTYWGQGTLVTVSS VL: DIQMTQTTSSLSASLGDRVTISCRASQDIGNYLNWYQQKPDGTVKLLIYYTSRLHSGVPSRFSGSGSGTDYSLTISNLEQEDIATYFCQQGNTLPFTFGSGTKLEIK",
    "Max OD450": 0.19
  },
  {
    "binder": "#38 (antibody, V domains shown) VH: QVQLQQSGAELARPGASVKLSCKASGYTFSIHWMQWVKQRPGQGLEWIGAIYPGNGDTKYTQKFKGKATLTADKSSSTAYMQLSNLASEDSAVYYCATLYGNYEAYWGQGTLVTVSA VL: DIVLTQSPASLSASVGETVTITCGASENIYGALNWYQRKQGKSPQLLIYGTTNLADGMSSRFSGSGSGRQYSLKISSLHPDDVATYYCQNVLTTPPWTFGGGTKLEIK",
    "Max OD450": 0.16
  }
]

# credit: patent US20250368742A1
